biological target: human PHD2 (Homo sapiens (Human)); experiment: Test 1: human PHD2 inhibitory activity, [14C]-2-oxoglutarate to [14C]-succinic acid radiometric assay with HIF-1α peptide; assay type: biochemical; details: test compound's concentration 1 μM; Test 1, [14C]-2-oxoglutarate radiometric assay; read-out: Percent inhibition (% at 1 μM)
Sequence (Q9GZT9 whole entry): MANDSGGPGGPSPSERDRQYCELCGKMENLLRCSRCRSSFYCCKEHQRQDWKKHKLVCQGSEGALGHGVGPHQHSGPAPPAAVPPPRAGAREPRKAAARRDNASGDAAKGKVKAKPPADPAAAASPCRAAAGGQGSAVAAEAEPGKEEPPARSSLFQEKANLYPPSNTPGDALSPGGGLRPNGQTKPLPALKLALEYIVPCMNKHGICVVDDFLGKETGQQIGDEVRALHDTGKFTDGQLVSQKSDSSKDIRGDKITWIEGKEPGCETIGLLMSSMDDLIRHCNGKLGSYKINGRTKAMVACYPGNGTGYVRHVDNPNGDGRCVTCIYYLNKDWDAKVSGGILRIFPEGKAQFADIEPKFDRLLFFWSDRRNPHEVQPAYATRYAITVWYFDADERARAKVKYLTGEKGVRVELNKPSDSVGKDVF
Assay endpoint: inhibition at 1 µM (%)

| Molecule | Value observed |
| --- | --- |
| O=C(O)CNC(=O)C1=C(O)CCN(Cc2ccc(-c3cnoc3)cc2)C1=O | 87 |
| O=C(O)CNC(=O)C1=C(O)C(c2ccccc2)CN(Cc2ccc(-c3ccccc3)cc2)C1=O (stereo not drawn) | 58 |
| O=C(O)CNC(=O)C1=C(O)CCN(Cc2ccc(Br)cc2F)C1=O | 88 |
| Cc1ccc(Oc2ccc(CN3CCC(O)=C(C(=O)NCC(=O)O)C3=O)cc2)cn1 | 99 |
| Cc1c(CN2CCC(O)=C(C(=O)NCC(=O)O)C2=O)cnn1-c1ccccc1 | 78 |
| O=C(O)CNC(=O)C1=C(O)C2(CC2)CN(Cc2ccc(-c3ccccc3)cc2)C1=O | 98 |
| O=C(O)CNC(=O)C1=C(O)CCN(C2(c3ccc(-c4ccccc4)cc3)CC2)C1=O | 69 |
| O=C(O)CNC(=O)C1=C(O)CCN(Cc2ccc(CCC3CC3)cc2)C1=O | 103 |
| O=C(O)CNC(=O)C1=C(O)CCN(Cc2ccc3ccccc3c2)C1=O | 81 |

* * *

biological target: human PHD2 (Homo sapiens (Human)); test: Test 2: human PHD2 inhibitory activity, fluorescence polarization assay of HIF-1α peptide proline hydroxylation; format: biochemical; conditions: test compound's concentration 1 μM; Test 2, fluorescence polarization assay; read-out: Percent inhibition (% at 1 μM)
Assay endpoint: inhibition at 1 µM (%)

| Compound | inhibition at 1 µM, % |
| --- | --- |
| O=C(O)CNC(=O)C1=C(O)CC2(CCCCC2)N(Cc2cnc(-c3ccccc3)s2)C1=O | 90 |
| CC1C(O)=C(C(=O)NCC(=O)O)C(=O)N1Cc1ccc(OCC2CC2)cc1 (centres unmarked) | 83 |
| O=C(O)CNC(=O)C1=C(O)CCN(Cc2ccc(C(F)(F)F)c(C3CC3)c2)C1=O | 85 |
| O=C(O)CNC(=O)C1=C(O)CCN(Cc2ccc(-c3cccnc3)cc2)C1=O | 91 |
| CC1CC(O)=C(C(=O)NCC(=O)O)C(=O)N1Cc1ccc(Cl)c(Cl)c1 (centres unmarked) | 79 |

[P] O=C(O)CNC(=O)C1=C(O)CCN(Cc2ccc(-c3ccc(C(=O)O)cc3)cc2)C1=O
[Q] CC1CC(O)=C(C(=O)NCC(=O)O)C(=O)N1C1(c2ccc(C(F)(F)F)cc2)CC1 (centres unmarked)
Q: Just tell me: smaller inhibition at 1 µM value, P or Q ? Response format: the label of the selected entry.
A: Q

[A] O=C(O)CNC(=O)C1=C(O)CC2(CCOCC2)N(CC2CCC(c3ccccc3)CC2)C1=O (centres unmarked)
[B] O=C(O)CNC(=O)C1=C(O)CC2(CCCCC2)N(Cc2ccc(C(F)(F)F)nc2)C1=O
Q: Please state the entry with greater inhibition at 1 µM among A and B . Response format: the label of the selected entry.
A: A
(A: 92%, B: 62%)

* * *

molecular target: human PHD2 (Homo sapiens (Human)); test: Test 2: human PHD2 inhibitory activity, fluorescence polarization assay of HIF-1α peptide proline hydroxylation; type: biochemical; conditions: test compound's concentration 1 μM; Test 2, fluorescence polarization assay; read-out: Percent inhibition (% at 1 μM)
Assay endpoint: inhibition at 1 µM (%)

Please review the entries below; each comes with its answer.
| Molecule | inhibition at 1 µM [%] |
| --- | --- |
| O=C(O)CNC(=O)C1=C(O)CCN(Cc2ccc(-c3ccc(C(=O)O)nc3)cc2)C1=O | 92 |
| CC1(COCc2ccc(CN3CCC(O)=C(C(=O)NCC(=O)O)C3=O)cc2)CC1 | 93 |
| O=C(O)CNC(=O)C1=C(O)C2(CCC2)CN(Cc2ccc(-c3ccccc3)cc2)C1=O | 86 |

[A] CC1CC(O)=C(C(=O)NCC(=O)O)C(=O)N1Cc1ccc(C(F)(F)F)cc1 (centres unmarked)
[B] Cc1cc(CN2C(=O)C(C(=O)NCC(=O)O)=C(O)CC2(C)C)cc(C)c1OC(F)F
Q: Just tell me: smaller inhibition at 1 µM value, A or B ? Response format: the label of the selected entry.
A: B
